Target: NLRP3 inflammasome (Homo sapiens (Human), UniProt Q96P20)
Sequence (Q96P20 whole entry): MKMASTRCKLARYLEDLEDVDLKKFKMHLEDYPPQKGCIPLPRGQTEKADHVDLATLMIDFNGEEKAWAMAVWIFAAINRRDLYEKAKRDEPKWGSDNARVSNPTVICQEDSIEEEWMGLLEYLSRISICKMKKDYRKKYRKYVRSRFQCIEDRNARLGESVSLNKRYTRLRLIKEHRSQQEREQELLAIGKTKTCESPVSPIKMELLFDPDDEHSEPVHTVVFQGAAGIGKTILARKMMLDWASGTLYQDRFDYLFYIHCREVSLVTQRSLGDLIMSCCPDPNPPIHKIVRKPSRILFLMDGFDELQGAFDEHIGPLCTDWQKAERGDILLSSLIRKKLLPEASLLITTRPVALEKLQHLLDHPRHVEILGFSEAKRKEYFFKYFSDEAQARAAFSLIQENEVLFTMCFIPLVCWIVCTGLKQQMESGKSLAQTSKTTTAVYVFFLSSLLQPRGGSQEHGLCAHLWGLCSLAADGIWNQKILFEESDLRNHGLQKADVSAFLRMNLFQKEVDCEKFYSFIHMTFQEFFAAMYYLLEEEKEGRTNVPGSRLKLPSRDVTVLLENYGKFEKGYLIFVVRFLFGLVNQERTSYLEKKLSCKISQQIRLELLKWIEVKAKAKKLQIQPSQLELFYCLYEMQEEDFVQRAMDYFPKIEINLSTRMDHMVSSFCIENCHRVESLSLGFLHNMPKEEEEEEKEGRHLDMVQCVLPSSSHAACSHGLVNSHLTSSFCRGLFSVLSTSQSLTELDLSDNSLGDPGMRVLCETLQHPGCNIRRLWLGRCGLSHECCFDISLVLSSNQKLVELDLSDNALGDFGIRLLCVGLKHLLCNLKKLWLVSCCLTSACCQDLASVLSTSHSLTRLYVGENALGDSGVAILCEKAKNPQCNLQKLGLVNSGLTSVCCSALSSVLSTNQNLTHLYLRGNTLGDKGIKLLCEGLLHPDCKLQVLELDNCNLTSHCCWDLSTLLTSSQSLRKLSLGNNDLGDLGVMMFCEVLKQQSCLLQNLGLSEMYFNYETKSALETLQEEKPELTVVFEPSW
Test: Evaluation of NLRP3 inflammasome inhibitory activity (inhibition of IL-1β production in THP1-Null cells, LPS/Nigericin)
MEASURED_ATTRIBUTE: IC50 (nM)

{"columns": ["MOLECULE", "MEASURED_ATTRIBUTE", "REPORTED"],
 "data": [
  ["CC(C)c1cn(C(C)C)nc1Nc1nc(C(=O)NS(=O)(=O)N2CCOCCC2C)co1 (racemic) [Example 2-184]", "IC50", 140]
]}

[P] CN(C1CCOC1)S(=O)(=O)NC(=O)c1cnc(Nc2c3c(cc4c2CCC4)CCC3)o1 (racemic) [Example 24]
[Q] Cc1ccc(C(F)(F)F)cc1Nc1nc(C(=O)NS(=O)(=O)N2CCCOCC2C)co1 (racemic) [Example 2-231]
[R] Cc1ccc(C(F)(F)F)cc1Nc1nc(C(=O)NS(=O)(=O)N2CCCC(O)CC2)co1 (racemic) [Example 2-156]
Query: Sort the 3 molecules by IC50; largest first, smallest last. Lab note: record answer as labels in requested order.
Reply: P, Q, R

* * *

Molecular target: NLRP3 inflammasome (Homo sapiens (Human))
Test: Evaluation of NLRP3 inflammasome inhibitory activity (inhibition of IL-1β production in THP1-Null cells, LPS/Nigericin)
Details: read-out: % inhibition at 3 μM
MEASURED_ATTRIBUTE: inhibition at 3 µM (%)

The examples below pair each entry with its known result.
{"columns": ["COMPOUND", "inhibition at 3 µM, %"],
 "data": [
  ["CC(C)c1nn2c(c1Nc1nc(C(=O)NS(=O)(=O)N3CCCOCC3)co1)OCCC2C (stereo not drawn) [Example 2-248]", 44],
  ["O=C(NS(=O)(=O)N1CCCOCC1)c1coc(Nc2cc(C(F)(F)F)ccc2Cl)n1 [Example 2-136]", -1.6],
  ["Cc1cn(CC(C)C)nc1Nc1nc(C(=O)NS(=O)(=O)N2CCCOCC2)co1 [Example 2-189]", 16]
]}

[P] CC(C)c1cnc(C(F)(F)F)nc1Nc1nc(C(=O)NS(=O)(=O)N2CCCOCC2)co1 [Example 2-144]
[Q] Cc1ccc(C)c(Nc2nc(C(=O)NS(=O)(=O)N3CCC[C@H]3CN3CCCC3)co2)c1 [Example 2-321]
Query: # return whichever of P and Q has the smaller inhibition at 3 µM Write down the label of the entry you select.
Reply: Q

* * *

Target: UniProt:Q96P20
Assay: Evaluation of NLRP3 inflammasome inhibitory activity (inhibition of IL-1β production in THP1-Null cells, LPS/Nigericin)
Details: IL-1β production in THP1-Null cells, PMA/LPS primed, Nigericin 7.5 μmol/L
MEASURED_ATTRIBUTE: IC50 (nM)

Examples with their reported IC50 follow.
{"columns": ["COMPOUND", "IC50 [nM]"],
 "data": [
  ["COCCN(C(C)C)S(=O)(=O)NC(=O)c1coc(Nc2c3c(c(Cl)c4c2CCC4)CCC3)n1", 220],
  ["O=C(NS(=O)(=O)N1CCOCC12CCC2)c1cnc(Nc2c3c(cc4c2CCC4)CCC3)o1", 210],
  ["CC(=O)N1CCN(S(=O)(=O)NC(=O)c2coc(Nc3c4c(c(Cl)c5c3CCC5)CCC4)n2)CC1", 170]
]}

[1] Cc1cc(Nc2nc(C(=O)NS(=O)(=O)N3CCOC(CS(=O)(=O)C(C)C)CC3)co2)c(C)cc1F (stereo not shown)
[2] COC1CN(S(=O)(=O)NC(=O)c2cnc(Nc3c4c(cc5c3CCC5)CCC4)o2)C1
Query: Which value of IC50 is greater, the one for 1 or the one for 2 ? Answer format: the label of the selected item.
Reply: 2
(2: 830 nM, 1: 26 nM)

[a] O=C(NS(=O)(=O)N1CCCOCC1)c1cnc(Nc2c3c(cc4c2CCC4)CCC3)o1
[b] C[C@H]1CCCN1S(=O)(=O)NC(=O)c1coc(Nc2c3c(c(Cl)c4c2CCC4)CCC3)n1
[c] CC(C)N(C)S(=O)(=O)NC(=O)c1coc(Nc2c3c(cc4c2CCC4)CCC3)n1
[d] Cc1ccc2c(c1Nc1nc(C(=O)NS(=O)(=O)N(C)C)co1)CCC2
Query: Order the records by IC50, with each subsequent value no larger than the one before. Sort the labels as requested; that list is your answer.
Reply: b, d, a, c

[P] O=C(NS(=O)(=O)N1CCOC2(COC2)C1)c1coc(Nc2c3c(c(Cl)c4c2CCC4)CCC3)n1
[Q] Cc1ccc2c(c1Nc1nc(C(=O)NS(=O)(=O)N3CCCC3)co1)CCC2
[R] CN(C)S(=O)(=O)NC(=O)c1cnc(Nc2cccc3c2CCC3)o1
[S] CS(=O)(=O)N1CCN(S(=O)(=O)NC(=O)c2coc(Nc3c4c(c(Cl)c5c3CCC5)CCC4)n2)CC1
[T] O=C(NS(=O)(=O)N1CC2CCC(C1)O2)c1coc(Nc2c3c(c(F)c4c2CCC4)CCC3)n1
Query: hey, can you rank those compounds up there by IC50? biggest number first please Please respond with the labels ordered as the question requires.
Reply: R, Q, S, P, T
(R: 5700 nM, Q: 310 nM, S: 160 nM, P: 74 nM, T: 44 nM)

[P] CN(C)S(=O)(=O)NC(=O)c1coc(Nc2c3c(c(F)c4c2CCC4)CCC3)n1
[Q] O=C(NS(=O)(=O)N1C[C@H]2COC[C@H]2C1)c1coc(Nc2c3c(c(F)c4c2CCC4)CCC3)n1
Query: Returns the identifier with the smallest measured IC50 among P and Q . Give the chosen item's label as your response.
Reply: P
(P: 58 nM, Q: 130 nM)
